Experiment: self-splicing fitness, log relative to wild type (ln ratio); higher = more splicing; Tetrahymena group I intron in knt gene, E. coli kanamycin selection, DiMSum; sequences stand for … in CUCUCU…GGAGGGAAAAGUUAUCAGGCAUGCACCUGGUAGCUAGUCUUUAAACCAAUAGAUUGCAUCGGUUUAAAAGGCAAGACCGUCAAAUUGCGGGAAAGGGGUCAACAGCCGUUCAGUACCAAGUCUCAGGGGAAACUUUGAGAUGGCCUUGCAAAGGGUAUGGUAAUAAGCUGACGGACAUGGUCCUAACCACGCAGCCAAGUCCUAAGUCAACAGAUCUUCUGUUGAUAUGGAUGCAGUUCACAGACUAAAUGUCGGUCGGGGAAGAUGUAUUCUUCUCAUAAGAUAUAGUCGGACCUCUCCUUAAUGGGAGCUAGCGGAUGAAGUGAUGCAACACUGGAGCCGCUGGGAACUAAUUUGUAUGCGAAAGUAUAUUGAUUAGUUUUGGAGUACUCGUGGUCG;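 also: selection with 25 µg/mL kanamycin versus none on LB agar overnight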
Conditions: 30 °C
assay endpoint: self-splicing fitness (ln)
Give your answer as a number; write no unit.

Solved cases below.
[[record]]
construct_sequence = "AGAUAGCAAUAUUACGUGAC"
value_measured = -3.44

[[record]]
construct_sequence = "GGCAAGCAAUAUUACGCUAU"
value_measured = -0.0842

[[record]]
construct_sequence = "CGAAAGCAAUAUUACGUCGA"
value_measured = -3.02

[[record]]
construct_sequence = "AAAAAGCAAUAUUACGGGGA"
value_measured = -1.74

[[record]]
construct_sequence = "UAUAAGCAAUAUUACGUACG"
value_measured = -0.621


If you can, please state the reported self-splicing fitness (ln) value of GCAUAGCAAUAUUACGCGGU . -3.29

// lookup self-splicing fitness (ln) for GCGCAGCAAUAUUACGCUGU -3.56

Name the reported self-splicing fitness (ln) value associated with the sequence GCCCAGCAAUAUUACGGGAU -1.74
